// pKi collected for Carbonic anhydrase 9 (Homo sapiens)
Please keep in mind that pKi is minus log10 of the molar concentration; only the number is needed.

As a guide, the following entries are already answered.
[[record]]
item_smiles = "CCOC(=O)c1ccc(N2C(=O)c3ccc(C(=O)Nc4ccc(Cl)cc4C(=O)O)cc3C2=O)cc1"
observed_result = 6.28

[[record]]
item_smiles = "COc1ccc(NC(=O)c2ccc3c(c2)C(=O)N(CCc2ccc(S(N)(=O)=O)cc2)C3=O)c(C(=O)O)c1"
observed_result = 8.09

[[record]]
item_smiles = "NS(=O)(=O)c1ccc(CN2C(=O)c3ccc(C(=O)Nc4ccc(Cl)cc4C(=O)O)cc3C2=O)cc1"
observed_result = 7.67

[[record]]
item_smiles = "O=C(O)c1ccc(N2C(=O)c3ccc(C(=O)Nc4ccc(Cl)cc4C(=O)O)cc3C2=O)cc1"
observed_result = 6.34

[[record]]
item_smiles = "O=C(Nc1ccc(Cl)cc1C(=O)O)c1ccc2c(c1)C(=O)N(CCc1ccccc1)C2=O"
observed_result = 4.40

[[record]]
item_smiles = "NS(=O)(=O)c1ccc(N2C(=O)c3ccc(C(=O)Nc4ccc(Cl)cc4C(=O)O)cc3C2=O)cc1"
observed_result = 8.41

[[record]]
item_smiles = "COc1ccc(NC(=O)c2ccc3c(c2)C(=O)N(CCc2ccccc2)C3=O)c(C(=O)O)c1"
observed_result = 4.51

[[record]]
item_smiles = "CCOC(=O)c1ccc(N2C(=O)c3ccc(C(=O)Nc4ccc(OC)cc4C(=O)O)cc3C2=O)cc1"
observed_result = 6.02

[[record]]
item_smiles = "O=C(Nc1ccc(Cl)cc1C(=O)O)c1ccc2c(c1)C(=O)N(c1ccccc1)C2=O"
observed_result = 5.26


Query compound follows.
**Query** Param readout= pKi; system= Carbonic anhydrase 9 (Homo sapiens); entry= COc1ccc(NC(=O)c2ccc3c(c2)C(=O)N(c2ccc(S(N)(=O)=O)cc2)C3=O)c(C(=O)O)c1 ; returns value.
**Result** 8.06

---

// Ki collected for Carbonic anhydrase 12 (Homo sapiens, UniProt O43570)

**Query** Param readout= Ki; system= Carbonic anhydrase 12 (Homo sapiens, UniProt O43570); entry= O=C(Nc1ccc(Cl)cc1C(=O)O)c1ccc2c(c1)C(=O)N(CCc1ccccc1)C2=O ; returns value.
**Result** > 100 µM

**Query** Param readout= Ki; system= Carbonic anhydrase 12 (Homo sapiens, UniProt O43570); entry= COc1ccc(NC(=O)c2ccc3c(c2)C(=O)N(c2ccccc2)C3=O)c(C(=O)O)c1 ; returns value.
**Result** > 100 µM

---

Target Entity: Carbonic anhydrase 1 (Homo sapiens)
Sequence (P00915 whole entry): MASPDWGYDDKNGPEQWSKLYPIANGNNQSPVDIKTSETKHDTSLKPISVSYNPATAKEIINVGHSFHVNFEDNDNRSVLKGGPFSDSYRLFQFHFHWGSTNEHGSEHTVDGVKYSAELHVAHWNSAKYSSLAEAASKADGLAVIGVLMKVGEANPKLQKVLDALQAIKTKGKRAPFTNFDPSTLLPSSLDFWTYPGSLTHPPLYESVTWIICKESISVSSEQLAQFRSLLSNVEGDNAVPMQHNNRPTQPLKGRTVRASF
Assay Procedure: Inhibition of recombinant human CA1 preincubated for 15 mins by phenol red dye-based stopped-flow CO2 hydration assay
// values below are reported Ki

As a guide, the following entries are already answered.
[[record]]
item_smiles = "COc1ccc(NC(=O)c2ccc3c(c2)C(=O)OC3=O)c(C(=O)O)c1"
target_entity = "Carbonic anhydrase 1 (Homo sapiens)"
observed_result = "> 0.1 µM"

[[record]]
item_smiles = "COc1ccc(NC(=O)c2ccc3c(c2)C(=O)N(Cc2ccccc2)C3=O)c(C(=O)O)c1"
target_entity = "Carbonic anhydrase 1 (Homo sapiens)"
observed_result = "> 100 µM"

[[record]]
item_smiles = "O=C(Nc1ccc(Cl)cc1C(=O)O)c1ccc2c(c1)C(=O)N(Cc1ccccc1)C2=O"
target_entity = "Carbonic anhydrase 1 (Homo sapiens)"
observed_result = "> 100 µM"


**Query** Any idea what its Ki is? The compound is COc1ccc(NC(=O)c2ccc3c(c2)C(=O)N(CCc2ccccc2)C3=O)c(C(=O)O)c1
**Result** > 100 µM

**Query** Any idea what its Ki is? The compound is O=C(Nc1ccc(Cl)cc1C(=O)O)c1ccc2c(c1)C(=O)N(CCc1ccccc1)C2=O
**Result** > 100 µM

**Query** Any idea what its Ki is? The compound is O=C(Nc1ccc(Cl)cc1C(=O)O)c1ccc2c(c1)C(=O)N(c1ccccc1)C2=O
**Result** > 100 µM
